Data origin: paper PMC8358987

- Target desc: UniProt:P07948
- Sequence (P07948 whole entry): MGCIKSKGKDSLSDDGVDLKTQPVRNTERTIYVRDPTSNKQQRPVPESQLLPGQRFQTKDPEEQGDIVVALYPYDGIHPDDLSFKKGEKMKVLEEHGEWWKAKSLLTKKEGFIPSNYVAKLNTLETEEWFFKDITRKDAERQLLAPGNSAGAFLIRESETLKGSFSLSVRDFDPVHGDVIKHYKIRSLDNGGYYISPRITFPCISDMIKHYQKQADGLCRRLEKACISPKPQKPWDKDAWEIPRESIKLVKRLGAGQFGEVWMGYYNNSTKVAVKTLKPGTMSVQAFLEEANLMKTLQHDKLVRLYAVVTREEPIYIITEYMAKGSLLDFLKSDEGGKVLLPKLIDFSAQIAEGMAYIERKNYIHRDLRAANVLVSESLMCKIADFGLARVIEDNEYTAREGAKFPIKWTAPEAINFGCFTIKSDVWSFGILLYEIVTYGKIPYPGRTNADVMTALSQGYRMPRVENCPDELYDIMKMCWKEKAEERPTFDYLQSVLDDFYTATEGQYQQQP
pIC50: −log10 of the molar value.
Property measured: pIC50

Need pIC50 of COc1cc2nccc(Oc3ccc(NC(=O)C4(C(=O)Nc5ccc(F)cc5)CC4)cc3)c2cc1OC [cabozantinib] , thanks.
6.16 to 7.82

* * *

- Target desc: OATP1B1 (Homo sapiens, UniProt Q9Y6L6)
- Sequence (Q9Y6L6 1-691): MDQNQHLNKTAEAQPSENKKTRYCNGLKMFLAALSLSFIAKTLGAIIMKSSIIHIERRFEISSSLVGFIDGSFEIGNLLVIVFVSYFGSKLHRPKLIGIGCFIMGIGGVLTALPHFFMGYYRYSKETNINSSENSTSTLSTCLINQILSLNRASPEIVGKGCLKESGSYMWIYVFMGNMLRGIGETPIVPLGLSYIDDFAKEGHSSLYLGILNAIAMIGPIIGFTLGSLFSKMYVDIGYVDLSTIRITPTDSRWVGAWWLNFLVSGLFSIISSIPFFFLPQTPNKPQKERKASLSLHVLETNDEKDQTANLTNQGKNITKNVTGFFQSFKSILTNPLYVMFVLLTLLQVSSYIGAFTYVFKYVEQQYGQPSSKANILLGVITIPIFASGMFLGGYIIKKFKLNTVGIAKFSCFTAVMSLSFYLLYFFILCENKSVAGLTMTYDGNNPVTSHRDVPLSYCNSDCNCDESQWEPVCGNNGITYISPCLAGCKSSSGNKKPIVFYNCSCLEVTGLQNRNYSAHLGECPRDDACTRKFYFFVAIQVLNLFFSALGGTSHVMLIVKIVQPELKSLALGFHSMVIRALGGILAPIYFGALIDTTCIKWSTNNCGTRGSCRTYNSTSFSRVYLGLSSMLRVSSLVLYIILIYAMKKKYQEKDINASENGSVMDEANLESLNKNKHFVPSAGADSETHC
- Format: cell-based
- Condition: overexpressing HEK293 cells; 10 μM TKI screen
Property measured: Reduction of OATP1B1 function

Need Reduction of OATP1B1 function of Cc1cn(-c2cc(NC(=O)c3ccc(C)c(Nc4nccc(-c5cccnc5)n4)c3)cc(C(F)(F)F)c2)cn1 [nilotinib] , thanks.
> 75%

Need Reduction of OATP1B1 function of CC(C)(C)c1nc(-c2cccc(NS(=O)(=O)c3c(F)cccc3F)c2F)c(-c2ccnc(N)n2)s1 [dabrafenib] , thanks.
> 75%

Need Reduction of OATP1B1 function of CNC(=O)c1cc(Oc2ccc(NC(=O)Nc3ccc(Cl)c(C(F)(F)F)c3)cc2)ccn1 [sorafenib] , thanks.
> 75%

Need Reduction of OATP1B1 function of CNC(=O)c1ccccc1Sc1ccc2c(/C=C/c3ccccn3)n[nH]c2c1 [axitinib] , thanks.
> 75%

Need Reduction of OATP1B1 function of COc1cc2nccc(Oc3ccc(NC(=O)C4(C(=O)Nc5ccc(F)cc5)CC4)cc3)c2cc1OC [cabozantinib] , thanks.
> 75%
